Origin of values: the NIST ThermoML archive (doi:10.1021/je900550v)

# ASSAY CONTEXT: 312.41 K; 101.33 kPa; Liquid; Vibrating tube method
MEASURED QUANTITY: mass density (kg/m3)

CCCCC(=O)[O-].C[NH2+]CCO [2-hydroxy-N-methylethanaminium pentanoate] | 1006.63
CC(C)C(=O)[O-].C[NH2+]CCO [2-hydroxy-N-methylethanaminium isobutyrate] | 1034.15
CC(=O)[O-].C[NH2+]CCO [N-methyl-2-hydroxyethylammonium acetate] | 1092.24
CCCC(=O)[O-].C[NH2+]CCO [N-methyl-2-hydroxyethylammonium butanoate] | 1029.65
CCC(=O)[O-].C[NH2+]CCO [2-hydroxy-N-methylethanaminium propionate] | 1061.99
C[NH2+]CCO.O=C[O-] [2-hydroxy-N-methylethanaminium formate] | 1120.29
